assay: NCI Yeast Anticancer Drug Screen. Data for the rad52 strain (AID 147);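 note: 0% = growth of vehicle-treated control cultures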; conditions: S. cerevisiae rad52 mutant growth inhibition; at 3.7 µM; hits give high values
About 79,000 compounds went through this panel and 15% of them were active in at least one assay; those are over-represented in the sample as a whole. Residues, ends and D or L forms follow the SMILES beside them. *: point of attachment. CH2Cl = ClC*
# growth inhibition values compiled below
Your answer is read as %, so omit the unit and give the number.

Reference set (2 entries):
compound="CC1(C)C(C=O)=CCC1CC(N)=O (configuration not stated)" readout_number=-1
compound=Cc1c(-c2ccccc2)[nH]c2ccccc12 readout_number=-8

Item: `CC(C)(C)c1ccc(O)c(C(c2ccc([N+](=O)[O-])cc2)c2cc(C(C)(C)C)ccc2O)c1` | growth inhibition: 24

Record O=S1(=O)c2ccccc2N=C(c2ccccc2Cl)CC1c1ccc(F)cc1 (configuration not stated) . Reported growth inhibition: 24

Form: compound = `COC(=O)CSc1nnc(CSc2ccc(Cl)cc2)n1-c1ccccc1` ; growth inhibition = 3

Entry under test: `COC(=O)c1ccc2c(c1)Cc1ccccc1-2` . Its growth inhibition was 5

The reported value for `Cc1ccc2c(ccc(/C=C/c3ccc(O)c4ncccc34)[n+]2C)c1` in terms of growth inhibition is 46

Entry `COc1ccc(N=N/C(=N\NC(=O)c2cc(Br)ccc2O)c2ccc(N(CCC#N)CCC#N)cc2OC)cc1` ; growth inhibition = 44

Field growth inhibition (entry `COc1ccc(/C(C#N)=C/c2ccc(OC)c(OC)c2)cc1` ) reads -6

// field: growth inhibition; key: `NNC(=S)Nc1cccc2ccccc12` ; value = -35

`COC(=O)/C=C1/OC(c2ccc(Br)cc2)=C(Br)C1=O` has a reported growth inhibition of -22

The value of growth inhibition measured for the compound CC(=O)NC(CC(C)C)C(=O)NC(Cc1ccccc1)C(=O)CCl (stereo not drawn) (Ac-Leu-Phe-CH2Cl; configuration not given here) turned out to be 1

So for CCC(=O)N(c1ccccc1)C(C)CN1CCC(O)(c2cccc(C(F)(F)F)c2)CC1 (configuration not stated) , the logged growth inhibition turned out to be 4

get_value(item= `CN(C)Cc1cccc(CN(C)C)[c]1[Sn]([Br])([c]1ccccc1)[c]1ccccc1` , readout=growth inhibition) returns 45

Recorded growth inhibition (compound `On1cnc(=S)c2[nH]cnc21` ): -27

Notebook: `O=C1c2ccccc2CCC1(Br)Br` , growth inhibition read as 27

###

Assay: NCI Yeast Anticancer Drug Screen. Data for the rad52 strain (AID 147);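 note: 0% = growth of vehicle-treated control cultures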
Settings: S. cerevisiae rad52 mutant growth inhibition; at 1.2 µM; hits give high values
Procedure: Growth inhibition of yeast strains with defined genetic alterations is measured as a screen for potential anti-cancer activity. Selected strains with alterations in DNA damage repair or cell cycle control were exposed to compounds and growth inhibition was measured relative to vehicle treated controls. The strain used in this assay is rad52
This is part of a sample that, as a whole, favours compounds with a hit. Of some 79,000 tested, about 15% had one in any assay.
This section presents molecules with their documented growth inhibition values.
Report as a plain number; the unit % is understood.

These recorded examples may help you get a feel for the data.
molecule="CCN(CC)CC(O)c1cc(-c2ccc(Cl)cc2)nc2c(-c3ccccc3)cccc12 (stereo not given)" measurement_kind="growth inhibition" readout_number=-1
molecule=CC(C)(C)[OH+][O-].[O-]c1ccc(Cl)cc1C=Nc1ccc(Cl)cc1[O-].[O]=[V] measurement_kind="growth inhibition" readout_number=0
molecule=O=C(NCCCCCN1CCC2(CCCCC2)CC1)C(C1CCCCC1)C1CCCCC1 measurement_kind="growth inhibition" readout_number=23

Entry `COc1cc(N(C)C)ccc1/C=C\c1ccnc2ccccc12` ; growth inhibition = -5

# growth inhibition (molecule: `O=Nn1c2ccccc2c2cc([N+](=O)[O-])ccc21` ) is -6

In plain terms, `O=C(Nc1ccc2c(c1)Cc1c-2ccc([N+](=O)[O-])c1F)C(F)(F)F` has a documented growth inhibition of 4

// recorded growth inhibition for `COC(=O)c1n[nH]c(C)c1N=NN(C)CCC#N` : 46

growth inhibition for `CN(N=O)C(=O)N[C@@H](C=O)[C@@H](O)[C@H](O)[C@H](O)CO` is 0

// growth inhibition value for `CC(=O)Oc1ccc(C(=O)c2ccccc2)c(O)c1` : -7

The measured growth inhibition associated with `CN(C)Cc1cccc(CN(C)C)[c]1[Sn]([Br])([c]1ccccc1)[c]1ccccc1` reads 28

# molecule Cc1ccc(S(=O)(=O)Nc2ccc3c(c2)C(O)c2ccccc2-3)cc1 (stereo not given) ; its growth inhibition = -2

Per the records, this molecule ( `COC(=O)CSc1nnc(CSc2ccc(Cl)cc2)n1-c1ccccc1` ) has growth inhibition equal to 1

###

Entries and their measured growth inhibition follow.
assay: NCI Yeast Anticancer Drug Screen. Data for the rad50EPP+ strain (AID 151);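 note: 0% = growth of vehicle-treated control cultures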; details: S. cerevisiae rad50 mutant strain, at 1.2 µM, hits give high values
The panel holds about 79,000 compounds, 15% with a hit somewhere; the sample as a whole holds those more often.
All answers are understood in %, so give the number only.

Previously resolved entries follow.
smiles_str=COc1ccc(C(C#N)=C2C=CC(=NO)C=C2)cc1 readout_number=42
smiles_str=O=C(/C=C/c1cccc2ccccc12)c1ccc(Cl)cc1 readout_number=-3
smiles_str=O=C(O)c1[nH]c(=O)c2ccccc2c1Nc1ccccc1 readout_number=-3

Item: `CCN(CC)CCNC(=O)c1nn(-c2ccc(Cl)cc2)c2c1CCc1cc(OC)ccc1-2` | growth inhibition: 18

Consider `CC(=O)O[C@H]1C(=O)[C@@]2(C)[C@H]([C@H](OC(=O)c3ccccc3)[C@]3(O)C[C@H](OC(=O)[C@H](O)[C@@H](NC(=O)c4ccccc4)c4ccccc4)C(C)=C1C3(C)C)[C@]1(OC(C)=O)CO[C@@H]1C[C@@H]2O` . Its measured growth inhibition is -4

###

assay: NCI Yeast Anticancer Drug Screen. Data for the bub3 strain (AID 167); settings: S. cerevisiae bub3 mutant strain, at 100.0 µM
The panel holds about 79,000 compounds, 15% with a hit somewhere; the sample as a whole holds those more often. Activity calls are given as the source filed them. Cut-off read from the data, not from the text of the source: active = growth inhibition above about 70%; inactive = the rest.
Answer with one of the outcomes t (active), f (inactive)

molecule=COc1ccc(N=Nc2ccc3oc(=O)c(C(=O)Nc4ccccc4)cc3c2)cc1 category_label=t
molecule="COc1cccc(C(c2cc3c(cc2O)OCO3)N2CCOCC2)c1OC (stereo unspecified)" category_label=f
molecule=COc1ccc(N2CN(C)CSC2=S)cc1 category_label=t

Q: What is the recorded call for this molecule in the test? `Cc1cc(N=C2C=CC(=[N+](C)C)C=C2)c(N)cc1N`
A: t

Q: Entry `CCC(=O)Oc1ccc(/C=N/NC(N)=S)nc1` : call = ?
A: f

Q: // outcome(item) with item = `COC(=O)c1oc([N+](=O)[O-])c(Cl)c1Cl`
A: t

###

assay: NCI Yeast Anticancer Drug Screen. Data for the rad14 strain (AID 159);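 note: 0% = growth of vehicle-treated control cultures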; settings: S. cerevisiae rad14 strain growth inhibition; at 3.7 µM; hits give high values
About 79,000 compounds went through this panel and 15% of them were active in at least one assay; those are over-represented in the sample as a whole.
measurement kind: growth inhibition (%)
Give just the number in %; leave the unit off.

Some entries whose results are on file:
smiles_str=O=[N+]([O-])c1c(/C=N/Nc2ccccc2)oc(-c2ccc3c(c2)OCO3)c1-c1ccc2c(c1)OCO2 measurement_unit=% readout_number=-2
smiles_str=O=C1CSC(=S)N1Cc1ccc(Cl)cc1Cl measurement_unit=% readout_number=20
smiles_str=Clc1c(Cl)c(Cl)c2n[nH]nc2c1Cl measurement_unit=% readout_number=-19

Value of measured growth inhibition for the entry `O=Nn1c2ccccc2c2cc([N+](=O)[O-])ccc21` : -5

growth inhibition for `CN(C)Cc1cccc(CN(C)C)[c]1[Sn]([Br])([c]1ccccc1)[c]1ccccc1` is 17

growth inhibition recorded for this molecule, `NNC(=S)Nc1cccc2ccccc12` , is -33

###

assay: NCI Yeast Anticancer Drug Screen. Data for the sgs1 strain (AID 173);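 note: 0% = growth of vehicle-only control cultures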; conditions: S. cerevisiae sgs1 mutant, at 11.0 µM
This is part of a sample that, as a whole, favours compounds with a hit. Of some 79,000 tested, about 15% had one in any assay. Calls of active or inactive are those of the source. Cut-off read from the data, not from the text of the source: active = growth inhibition above about 70%; inactive = the rest.
Response enum: 1.0 (active), 0.0 (inactive)

compound=Nc1nc(N)c2cc(Sc3ccc4ccccc4c3)ccc2n1 category_label=1.0
compound=O=C1CSC(=S)N1Cc1ccc(Cl)cc1Cl category_label=1.0

Q: What call does the record list for `CC(C)c1[nH]nc(C(N)=O)c1N=NN(C)C` ?
A: 0.0

Q: Name the outcome recorded for COc1ccc(N2C(=O)CC(Cl)C2=O)cc1 (stereo not drawn) in the assay.
A: 0.0

Q: Assay result, entry `Cc1onc(-c2ccccc2Cl)c1C1=N/C(=C/c2cc(Cl)cc(Cl)c2O)C(=O)O1` — outcome?
A: 0.0

Q: Assay outcome for `COc1cc(N(C)C)ccc1/C=C\c1ccnc2ccccc12` : what was it?
A: 0.0

Q: How did this test come out for `O=C(NCCCCCN1CCC2(CCCCC2)CC1)C(C1CCCCC1)C1CCCCC1` ?
A: 1.0

The values you see were collected from PubChem BioAssay (NCI).
